Entries and their measured pIC50 follow.
molecular target: recombinant eIF4E (Homo sapiens (Human), UniProt P06730); assay: Fluorescence polarization competition assay for eIF4E binding potency; conditions: fluorescence polarization competition, 75 nM recombinant eIF4E, 20 nM EDA-m7GDP-ATTO-550; IC50 class; read-out: elF4E FP
Sequence (P06730 whole entry): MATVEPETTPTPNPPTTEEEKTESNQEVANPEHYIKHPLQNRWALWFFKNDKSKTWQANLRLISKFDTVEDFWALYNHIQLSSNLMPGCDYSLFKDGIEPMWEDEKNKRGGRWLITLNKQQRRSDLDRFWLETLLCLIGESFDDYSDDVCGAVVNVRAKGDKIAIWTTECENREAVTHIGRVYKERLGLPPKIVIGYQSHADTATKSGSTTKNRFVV
pIC50: −log10 of the molar value.

Some compounds with known pIC50 results, for comparison:
compound=Cc1nc2cnc(N(C)C3CCN(C)CC3)c(C#N)c2c(=O)n1CCOc1ccc(Cl)cc1-c1ccnc2c(C(=O)O)csc12 measured_parameter=pIC50 meas_value="> 7.30"
compound="Cc1nc2c(N(C)C3CCN(C)CC3F)ncc(C#N)c2c(=O)n1CCOc1ccc(Cl)cc1-c1ccnc2c(C(=O)O)csc12 (stereo not shown)" measured_parameter=pIC50 meas_value="> 7.30"
compound=Cc1cc(-c2cc(Cl)ccc2OCCn2c(C)nc3cc(C(F)(F)F)c(-c4nccnc4C)nc3c2=O)c2scc(C(=O)O)c2n1 measured_parameter=pIC50 meas_value="> 7.30"

Asked: For the compound COc1ncc(C#N)c2c(=O)n(CCOc3ccc(Cl)cc3-c3ccc(C)c4c(C(=O)O)csc34)c(C)nc12 , report pIC50.
Given back: 6.00 to 7.30

Asked: For the compound Cc1cc(-c2cc(Cl)ccc2OCCn2c(C)nc3cnc(-c4ccccc4C)c(C#N)c3c2=O)c2scc(C(=O)O)c2n1 , report pIC50.
Given back: > 7.30

Asked: For the compound Cc1cc(-c2nc(C)c3nc(C)n(CCOc4ccc(Cl)cc4-c4cc(C)nc5c(C(=O)O)csc45)c(=O)c3c2C#N)ccn1 , report pIC50.
Given back: > 7.30

Asked: For the compound Cc1nc2ccc(OC(F)(F)F)c(C#N)c2c(=O)n1CCOc1ccc(Cl)cc1-c1ccnc2c(C(=O)O)csc12 , report pIC50.
Given back: > 7.30

Asked: For the compound Cc1nc2cc(C(F)(F)F)c(N3CCN(C4CC4)CC3)c(C#N)c2c(=O)n1CCOc1ccc(Cl)cc1-c1ccnc2c(C(=O)NS(C)(=O)=O)csc12 , report pIC50.
Given back: > 7.30

Asked: For the compound Cc1cc(-c2cc(Cl)ccc2OCCn2c(C)nc3cc(C(F)(F)F)c(Cc4ncccc4F)c(C#N)c3c2=O)c2scc(C(=O)O)c2n1 , report pIC50.
Given back: > 7.30

Asked: For the compound CC(COc1ccc(Cl)cc1-c1cccc(C(=O)O)c1)n1cnc2cnc(C#N)cc2c1=O (stereo not shown) , report pIC50.
Given back: < 6.00

Asked: For the compound Cc1cc(-c2cc(Cl)ccc2OCCn2c(C)nc3cnc(OC(F)F)c(C#N)c3c2=O)c2scc(C(=O)O)c2n1 , report pIC50.
Given back: > 7.30

Asked: For the compound CNc1ncc2nc(C)n(CCOc3ccc(Cl)cc3-c3cc(C)nc4c(C(=O)O)csc34)c(=O)c2c1C#N , report pIC50.
Given back: > 7.30

Asked: For the compound Cc1nc2cc(C#N)c(Cl)c(C#N)c2c(=O)n1CCOc1ccc(Cl)cc1-c1ccnc2c(C(=O)O)csc12 , report pIC50.
Given back: > 7.30
